Where do these numbers come from? They come from patent US8937091B2.

We begin with a simple list: items and their reported inhibition at 100 µM.
Tested on: IICR (IP3 induced calcium release) in CHO cells
ASSAY OVERVIEW: Assay of IICR (IP3 induced calcium release)-inhibiting action
Assay type: cell-based, Chinese hamster
TEST PARAMETERS: Cricetulus griseus, CHO, test compound 100 μmol; CHO cells, 10 μM ATP; read-out: IICR level (percentage of inhibition)
Form entry: value (%) — number only.

Some entries whose results are on file:
CN(CCO)CCC(=O)c1ccc2ccccc2c1	60
CN(CCO)CCC(=O)c1ccsc1	40
CCC(CO)(CO)NCCC(=O)c1ccc2c(Cl)cccc2c1	100
CN(CCC(=O)c1ccco1)Cc1ccccc1	80
CC(CN(CCO)Cc1ccccc1)C(=O)c1ccc(F)cc1 (centres unmarked)	20

Now take the following compound into account.
Give measured inhibition at 100 µM for "CC(C)N(CCC(=O)c1ccsc1)Cc1ccccc1" (IICR (IP3 induced calcium release) in CHO cells).
80
